Recorded values, source patent US20210324080A1.

Collected % Block at 40 nM values appear next to each entry.
- Target Of Assay: T1, CTLA-4-hFc (immunogen A; hFc-labeled CTLA-4 extracellular domain protein) (human, UniProt P16410 36-161)
- T1 construct: range 36-161; Made in HEK293 cells, purified on protein A; also called CLTA-4-hFc; CTLA-4 protein; not shown: human IgG Fc fragment (hFc) of the pCpC vector
- T1 sequence (looked up): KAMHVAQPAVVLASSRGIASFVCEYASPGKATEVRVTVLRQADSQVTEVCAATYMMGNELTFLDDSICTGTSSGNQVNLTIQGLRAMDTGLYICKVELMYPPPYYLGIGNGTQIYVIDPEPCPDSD
- Assay Details: blocking assay, CTLA-4 protein, competitor B7.2
Answer format: numeric, % implied, no suffix.

Example entries and their recorded answers appear below.
[
  {
    "Binder": "31C12F3 fully human CTLA-4 antibody (human IgG1, kappa) (antibody, V domains shown, also called mAb010) VH: QVQLVESGGGVVQPGRSLILSCAASGFTFSSYGMHWVRQAPGKGLEWVAVVWYDGSNKYYADSVKGRFTISRDNSKNTLYLQMSSLRAEDTAVYYCARGGIVVPGLFEYWGQGSLVTVSS VL: DIQMTQSPSSLSASVGDRVAITCRTSQSISNLLNWYQQKPGKAPELLIYAPSSFQSGVPSRFRGSGSGTDFTLTISSLQPEDFATYYCQQSYSTPFTFGPGTKVDIK",
    "% Block at 40 nM / %": 99.1
  },
  {
    "Binder": "92C8B6 fully human CTLA-4 antibody (human IgG1, kappa) (antibody, V domains shown, also called mAb42; mAb042) VH: QVQLVESGGGVVQPGRSLRLSCAASGFTFSNFGMHWVRQAPGKGLEWVAVIWYDGSNKYYADSVKGRFTISRDNSKNTLFLQMNGLRAEDTAVYYCAKGGILMAGTLDYWGQGTLVTVSS VL: DIQMTQSPSSLSASVGDRVTITCRASQSVSTYLNWYQQKPGKAPKLLIYAASSFQSGVPSRFSGSGSGTDFTLTISSLQPEDFATYFCQQSYSTPFTFGPGTKVDIK",
    "% Block at 40 nM / %": 99.2
  }
]

Consider now this further binder.
// 40C4C6 fully human CTLA-4 antibody (human IgG1, kappa) (antibody, V domains shown, also called mAb09; mAb009) VH: QVQLVESGGGVVQPGRSLRLSCAASGFTFSSYGMHWVRQAPGKGLEWVAVIWYDGRNKYYADSVKGRFTISRDNSKNTLYLQMNSLRAEDTAVYYCARASGSYSYYFDYWGQGTLVTVSS VL: DIQMTQSPSSLSASVGGRVTITCRASQSISSFLNWYQHELGKAPKLLIYGASSLQSGVPSRFSGSGSGTDFTLTISSLQPEDFATYYCQQTYSTPFTFGPGTKVDIK : % Block at 40 nM value = 99.1
